biological target: Thyroid hormone receptor beta (Homo sapiens) (UniProt P10828); assay: Gene Reporter Secondary Assay for Inhibitors of the Interaction of Thyroid Hormone Receptor and Steroid Receptor Coregulator 2 in a Thyroid Receptor Assay; settings: WRO cells TRb DR4-TRE luciferase reporter, T3, 20 h
Sequence (P10828 whole entry, looked up): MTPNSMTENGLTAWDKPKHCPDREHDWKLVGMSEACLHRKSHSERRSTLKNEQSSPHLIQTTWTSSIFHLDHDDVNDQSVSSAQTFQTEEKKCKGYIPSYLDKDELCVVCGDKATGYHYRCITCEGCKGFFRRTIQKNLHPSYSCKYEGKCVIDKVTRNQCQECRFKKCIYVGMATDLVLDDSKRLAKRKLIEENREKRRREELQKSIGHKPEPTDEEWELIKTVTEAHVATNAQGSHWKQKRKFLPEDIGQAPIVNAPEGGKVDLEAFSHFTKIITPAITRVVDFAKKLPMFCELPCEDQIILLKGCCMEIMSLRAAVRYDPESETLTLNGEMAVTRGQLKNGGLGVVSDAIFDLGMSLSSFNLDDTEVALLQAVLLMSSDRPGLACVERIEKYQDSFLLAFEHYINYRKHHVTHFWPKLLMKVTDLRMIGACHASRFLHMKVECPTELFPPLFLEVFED
Records with an inconclusive call do not appear. Activity calls are given as the source filed them. Calls come from the whole dose curve.
Choose one outcome from this list and give only that: True = active, False = inactive

These recorded examples may help you get a feel for the data.
[[record]]
compound = "CS(=O)(=O)c1ccc(C(=O)OCC(=O)N2CCCC2)cc1[N+](=O)[O-]"
assigned_category = "True"

[[record]]
compound = "Cc1cc(C(=O)OCC(=O)NC(=O)C2CCCCC2)ccc1[N+](=O)[O-]"
assigned_category = "False"

[[record]]
compound = "Cc1ccccc1NC(=O)COC(=O)c1ccc(S(C)(=O)=O)c([N+](=O)[O-])c1"
assigned_category = "True"

[[record]]
compound = "O=C(COC(=O)c1ccc2ncsc2c1)NC(=O)C1CCCCC1"
assigned_category = "False"


// switching to the query compound
Qu. Dear colleague, could you share the recorded outcome for O=C(COC(=O)c1cc([N+](=O)[O-])ccc1Cl)NC1C2CC3CC(C2)CC1C3 (stereo not given) when you have a moment?
Ans. False

----------
target: Thyroid hormone receptor beta (Homo sapiens); test: Gene Reporter Secondary Assay for Inhibitors of the Interaction of Thyroid Hormone Receptor and Steroid Receptor Coregulator 2 in a Thyroid Receptor Assay; conditions: WRO cells TRb DR4-TRE luciferase reporter, T3, 20 h
Results filed as inconclusive are left out. Active and inactive are the calls of the source. Calls follow the shape of the full dose curve.
Choose one outcome from this list and give only that: active, inactive

These recorded examples may help you get a feel for the data.
[[record]]
compound = "COc1cccc(CNC(=O)COC(=O)c2ccc(S(C)(=O)=O)c([N+](=O)[O-])c2)c1"
assigned_category = "active"

[[record]]
compound = "C[S+](=O)([O-])c1ccc(C(=O)OCC(=O)N2CCN([S+](C)(=O)[O-])CC2)cc1[N+](=O)[O-]"
assigned_category = "inactive"

[[record]]
compound = "Cc1ccc(F)cc1NC(=O)COC(=O)c1ccc(S(C)(=O)=O)c([N+](=O)[O-])c1"
assigned_category = "active"

[[record]]
compound = "CC1(C)C2CCC1(C)C(NC(=O)COC(=O)c1ccc(S(C)(=O)=O)c([N+](=O)[O-])c1)C2 (configuration not stated)"
assigned_category = "active"


Qu. Dear colleague, could you share the recorded outcome for CS(=O)(=O)c1ccc(C(=O)OCC(=O)NC(=O)NC2CCCCC2)cc1[N+](=O)[O-] when you have a moment?
Ans. active

Qu. Dear colleague, could you share the recorded outcome for CS(=O)(=O)c1ccc(-c2nnc(-c3ccccc3)s2)cc1[N+](=O)[O-] when you have a moment?
Ans. active

Qu. Dear colleague, could you share the recorded outcome for C[S+](=O)([O-])c1ccc(C(=O)OCC(=O)N2CCNC(=O)C2)cc1[N+](=O)[O-] when you have a moment?
Ans. inactive

----------
target: Thyroid hormone receptor beta (Homo sapiens) (UniProt P10828); assay: Gene Reporter Secondary Assay for Inhibitors of the Interaction of Thyroid Hormone Receptor and Steroid Receptor Coregulator 2 in a Thyroid Receptor Assay; conditions: WRO cells TRb DR4-TRE luciferase reporter, T3, 20 h
Inconclusive results are not listed. The source made the active and inactive calls. Calls come from the whole dose curve.
Reported property: Potency

Take a look at these entries with their results.
[[record]]
compound = "CN1CCN(C(=O)COC(=O)c2ccc(S(C)(=O)=O)c([N+](=O)[O-])c2)CC1"
result = "33.9 µM (active)"

[[record]]
compound = "CS(=O)(=O)c1ccc(C(=O)OCC(=O)NCC2CCCO2)cc1[N+](=O)[O-] (centres undefined)"
result = "15.2 µM (active)"

[[record]]
compound = "O=C(COC(=O)c1cccc([N+](=O)[O-])c1Cl)NC1C2CC3CC(C2)CC1C3 (centres undefined)"
result = "inactive"

[[record]]
compound = "C[S+](=O)([O-])c1ccc(C(=O)OCC(=O)NC2C3CC4CC(C3)CC2C4)cc1 (centres undefined)"
result = "inactive"

[[record]]
compound = "CS(=O)(=O)c1ccc(C(=O)OCC(=O)N2Cc3ccccc3C2)cc1[N+](=O)[O-]"
result = "12.6 µM (active)"

[[record]]
compound = "CC1CCCCN1C(=O)COC(=O)c1ccc(S(C)(=O)=O)c([N+](=O)[O-])c1 (centres undefined)"
result = "12.6 µM (active)"

[[record]]
compound = "O=C(COC(=O)c1cccc([N+](=O)[O-])c1)NC1C2CC3CC(C2)CC1C3 (centres undefined)"
result = "inactive"

[[record]]
compound = "CS(=O)(=O)c1ccc(C(=O)OCC(=O)N2CC(=O)Nc3ccccc32)cc1[N+](=O)[O-]"
result = "15.8 µM (active)"


Continue with the next compound.
# value of Potency, Thyroid hormone receptor beta (Homo sapiens) (UniProt P10828), item CC(=O)N1CCN(C(=O)COC(=O)c2ccc([S+](C)(=O)[O-])c([N+](=O)[O-])c2)CC1 = inactive
